- protocolSummary: reduced mouse 2C T cell binding to pMHC/ICAM-1 vesicles – MLPCN validation set, flow cytometry, LFA-1/ICAM-1 modulator project, pilot screen (AID 2523)
- cond: 2C mouse CD8+ T cells, at 7 µM, stronger effect = lower value; measured here: CD8+/vesicle+ event percentage
recordedMetric: double positive events (%)

compound=Cc1cc(=O)c2c(O)c(O)ccc2o1 unitsofmeasure=% result=60.3
compound="CCOc1cc2c(cc1OCC)C(c1ccccc1)N(c1ccc(C(=O)O)cc1)C(=O)C2 (stereo not drawn)" unitsofmeasure=% result=61.4
compound=Cc1cccc(Oc2coc3cc(OC(=O)c4cncc(Br)c4)ccc3c2=O)c1 unitsofmeasure=% result=64.8
compound=Cc1ncc(CN2CCC(CO)(CCc3ccccc3)CC2)s1 unitsofmeasure=% result=62.3
compound=CC(=O)c1ccc(CCCCCCCCCC(=O)O)s1 unitsofmeasure=% result=60
compound=CCCc1cc(=O)[nH]c(=S)[nH]1 unitsofmeasure=% result=61.7
compound="CCN(CC)c1ccc(C2=NNC(=O)CC2C)cc1[N+](=O)[O-] (stereo not drawn)" unitsofmeasure=% result=60.7
compound=COc1ccc2oc(=O)c(C(=O)Nc3ccccc3-c3ccccc3)cc2c1 unitsofmeasure=% result=64.5
